// data source = ChEMBL document CHEMBL3603823

- targetDesc: Sodium-dependent serotonin transporter (Rattus norvegicus)
- protocolText: Binding affinity to SERT in Sprague-Dawley rat brain synaptosomes assessed as induction of [3H]5-HT release by liquid scintillation counting method relative to control
- Type: subcellular
Recorded %max by entry
Give your result in % as a bare value.

Consider the following illustrative entries.
molecule | targetDesc | assayMetric | unitsSymbol | endpointValue
CNC(C)Cc1ccc2c(c1)OCCO2 (racemic) | Sodium-dependent serotonin transporter (Rattus norvegicus) | %max | % | 102
CNC(C)Cc1ccc2c(c1)OCO2 (racemic) | Sodium-dependent serotonin transporter (Rattus norvegicus) | %max | % | 98
CN[C@@H](C)Cc1ccc2c(c1)OCCO2 | Sodium-dependent serotonin transporter (Rattus norvegicus) | %max | % | 96
CNC(C)C(=O)c1ccc2c(c1)OCCO2 (racemic) | Sodium-dependent serotonin transporter (Rattus norvegicus) | %max | % | 105

Okay, now this molecule:
# query: %max of entry CN[C@H](C)Cc1ccc2c(c1)OCCO2
97

---

Entries and their measured %max follow.
- Organism: Rattus norvegicus
- protocolText: Binding affinity to NET in Sprague-Dawley rat brain synaptosomes assessed as induction of [3H]MPP+ release by liquid scintillation counting method relative to control
- Type: subcellular
Use % as the unit, but write only the number.

compound | %max, %
CNC(C)Cc1ccc2c(c1)OCCO2 (racemic) | 91
CN[C@H](C)Cc1ccc2c(c1)OCCO2 | 85
CN[C@@H](C)Cc1ccc2c(c1)OCCO2 | 94
CNC(C)Cc1ccc2c(c1)OCO2 (racemic) [MIDOMAFETAMINE] | 95

Kindly consider the entry below.
Given the compound CNC(C)C(=O)c1ccc2c(c1)OCCO2 (racemic) , what is its reported %max?
84

---

- targetDesc: Sodium-dependent dopamine transporter (Rattus norvegicus) (UniProt P23977)
- Sequence (P23977 whole entry): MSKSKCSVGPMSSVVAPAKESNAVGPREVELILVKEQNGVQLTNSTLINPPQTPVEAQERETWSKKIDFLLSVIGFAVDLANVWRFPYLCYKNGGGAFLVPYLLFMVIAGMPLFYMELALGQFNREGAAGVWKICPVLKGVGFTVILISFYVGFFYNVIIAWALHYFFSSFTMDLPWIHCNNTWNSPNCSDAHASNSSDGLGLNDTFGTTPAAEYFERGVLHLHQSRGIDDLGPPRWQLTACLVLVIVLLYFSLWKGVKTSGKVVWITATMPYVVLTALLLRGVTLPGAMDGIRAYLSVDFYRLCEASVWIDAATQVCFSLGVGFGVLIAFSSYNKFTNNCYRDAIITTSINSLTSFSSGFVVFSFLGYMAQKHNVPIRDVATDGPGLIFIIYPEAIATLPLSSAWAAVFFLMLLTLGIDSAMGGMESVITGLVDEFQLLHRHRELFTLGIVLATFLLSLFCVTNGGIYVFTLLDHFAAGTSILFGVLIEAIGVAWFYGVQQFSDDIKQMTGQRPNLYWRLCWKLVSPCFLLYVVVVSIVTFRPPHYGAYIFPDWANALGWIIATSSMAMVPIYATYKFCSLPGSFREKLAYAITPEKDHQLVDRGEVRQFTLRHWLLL
- protocolText: Binding affinity to DAT in Sprague-Dawley rat brain synaptosomes assessed as induction of [3H]MPP+ release by liquid scintillation counting method relative to control
- Type: subcellular
assayMetric: %max (%)
Number only, in %; omit the unit.

Examples from the recorded data:
molecule | targetDesc | unitsSymbol | endpointValue
CNC(C)Cc1ccc2c(c1)OCO2 (racemic) | Sodium-dependent dopamine transporter (Rattus norvegicus) (UniProt P23977) | % | 99
CNC(C)C(=O)c1ccc2c(c1)OCCO2 (racemic) | Sodium-dependent dopamine transporter (Rattus norvegicus) (UniProt P23977) | % | 105
CNC(C)Cc1ccc2c(c1)OCCO2 (racemic) | Sodium-dependent dopamine transporter (Rattus norvegicus) (UniProt P23977) | % | 108
CN[C@H](C)Cc1ccc2c(c1)OCCO2 | Sodium-dependent dopamine transporter (Rattus norvegicus) (UniProt P23977) | % | 106

Please turn your attention to the following entry.
Please look up its %max: CN[C@@H](C)Cc1ccc2c(c1)OCCO2
103

---

- targetDesc: Sodium-dependent dopamine transporter (Rattus norvegicus)
- protocolText: Binding affinity to DAT in Sprague-Dawley rat brain synaptosomes assessed as induction of [3H]MPP+ release by liquid scintillation counting method
Reported log10 EC50 values follow for various compounds
Values below are the log10 of the recorded EC50, with nM as the unit.

Some entries whose results are on file:
compound | log10 EC50
CNC(C)Cc1ccc2c(c1)OCCO2 (racemic) | 2.78
CNC(C)Cc1ccc2c(c1)OCO2 (racemic) [MIDOMAFETAMINE] | 1.88
CN[C@@H](C)Cc1ccc2c(c1)OCCO2 | 2.44
CNC(C)C(=O)c1ccc2c(c1)OCCO2 (racemic) | 2.70
CN[C@H](C)Cc1ccc2c(c1)OCCO2 | 4.16

Shift focus to the following entry.
Lab request: please report log10 EC50 under test system Sodium-dependent dopamine transporter (Rattus norvegicus) for CNC(C)C(=O)c1ccc2c(c1)OCO2 (racemic) [METHYLONE]
2.12
